- Tested on: A549 NSCLC
- assayMethodText: NCI tumour cell line growth inhibition, 48 h
Documented TGI across a set of compounds
Enter your answer as a number in µM; do not include the unit.

{"compound": "N#C[Se]Cc1cc(-c2ccccc2)n(-c2ccc(S(N)(=O)=O)cc2)n1", "unitsSymbol": "µM", "numericValue": 2.12}

Prompt line: For the compound shown here, CC12CCC(CC(=O)/C1=C(/Br)I)C2(C)C (centres undefined) , give the reported TGI.
Response line: 29.3

====

Documented TGI across a set of molecules
- Tested on: SNB-19 CNS
- assayMethodText: NCI tumour cell line growth inhibition, 48 h

{"molecule": "Cc1c(OC(C)C(=O)O)ccc2c(-c3ccccc3)cc(=O)oc12 (stereo unspecified)", "subjectOfTest": "SNB-19 CNS", "TGI": "> 100 µM"}

The record that follows has no TGI shown yet.
Prompt line: For the molecule shown here, O=C(COc1ccccc1Cl)N1N=C(c2ccc(Cl)cc2)CC1(O)c1ccccc1 (stereo unspecified) , give the reported TGI.
Response line: > 100 µM
